Where these numbers come from: patent US11795460B2

- Tested on: TTR
- experiment.notes: TTR editing in HepG2 cells transfected with Spy Cas9 mRNA and dgRNAs (Table 6)
- Assay type: cell-based, human
- assay.setup: HepG2 cells co-transfected with Spy Cas9 mRNA (SEQ ID NO:2) and dgRNAs
Outcome: Fulfilled for Avg % Edit of at least 40%; Not fulfilled for anything lower.

Quick check, Avg % Edit >= 40%? GGCCGUGCAUGUGUUCAGAA (tested as dual guide RNA, chemistry not given here) [CR005304]
Fulfilled
